- TESTED TARGET: Aspartate--tRNA(Asp/Asn) ligase (Mycobacterium tuberculosis (strain ATCC 25618 / H37Rv))
- Sequence (whole entry): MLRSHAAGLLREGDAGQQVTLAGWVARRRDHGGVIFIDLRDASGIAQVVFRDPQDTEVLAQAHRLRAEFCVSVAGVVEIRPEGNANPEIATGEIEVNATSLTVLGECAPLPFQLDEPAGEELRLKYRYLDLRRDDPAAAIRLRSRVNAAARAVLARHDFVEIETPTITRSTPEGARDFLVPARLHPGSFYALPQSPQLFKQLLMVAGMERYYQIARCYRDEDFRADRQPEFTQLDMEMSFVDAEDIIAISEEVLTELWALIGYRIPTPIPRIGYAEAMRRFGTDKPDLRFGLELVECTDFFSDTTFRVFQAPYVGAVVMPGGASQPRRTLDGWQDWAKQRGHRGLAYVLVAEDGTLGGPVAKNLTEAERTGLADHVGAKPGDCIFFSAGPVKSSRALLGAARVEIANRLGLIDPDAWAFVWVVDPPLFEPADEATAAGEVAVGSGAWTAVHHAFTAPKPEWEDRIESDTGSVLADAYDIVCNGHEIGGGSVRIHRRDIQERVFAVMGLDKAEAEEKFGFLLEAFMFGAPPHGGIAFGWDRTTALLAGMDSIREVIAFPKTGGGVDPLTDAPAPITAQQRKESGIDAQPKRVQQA
- TEST: Assay for Asp RNA synthetase-1 from Mycobacterium tuberculosis
- Assay type: functional
- Set-up: scale not given: in the data most compounds retested in dose-response had high values
- STUDY CONDITIONS: 30 µM
REPORTED PROPERTY: Percent Effect (%)

INSERT INTO assay_data (compound, value_reported) VALUES
  ('Cn1cc(CCC(=O)N2C[C@H]3CC[C@@H]2CN(Cc2ccccc2)C3)cn1', 2.92),
  ('CCOc1cc(/C=C/c2ncc(C(=O)O)s2)ccc1O', 0.568),
  ('Cc1nccc(-c2cccc(NCC(=O)N3CCCCCCC3)c2)n1', 1.07),
  ('O=C(C1=CC2(CCNCC2)c2ccccc21)N1CCCC1', 3.17),
  ('CCC(CC)C(=O)N1CCC2(C1)CN(c1ccccc1)C(=O)CN2C (configuration not stated)', -4.01),
  ('Cc1nn(C)c(C)c1-c1cncc(C2CCN(S(C)(=O)=O)CC2)n1', -2.63),
  ('O=C(CCCOCc1ccccc1)N1CCCC1c1ccccn1 (configuration not stated)', -1.14),
  ('Cc1cc(N2CCN(CCO)CC2)nc(-c2ccncc2)n1', 1.26),
  ('Cc1nn(C)c(Cl)c1CNCc1ccc(OCC(N)=O)cc1', -2.25),
  ('N#Cc1ccc(F)c(CN2CCCC2Cn2cccn2)c1 (configuration not stated)', 0.262),
  ('CCCNC(=O)N1CCN(Cc2cc(C)no2)CC1', -0.393),
  ('Cc1nc(C(C)C)sc1C(=O)NS(=O)(=O)c1ccc(C#N)cc1', -3.09);

###

- TESTED TARGET: Aspartate--tRNA(Asp/Asn) ligase (Mycobacterium tuberculosis (strain ATCC 25618 / H37Rv))
- TEST: Assay for Asp RNA synthetase-1 from Mycobacterium tuberculosis
- Assay type: functional
- Parameters: scale not given: in the data most compounds retested in dose-response had high values
- STUDY CONDITIONS: 30 µM
Listed below: Percent Effect values for each entry.
REPORTED PROPERTY: Percent Effect (%)

INSERT INTO measurements (compound, tested_target, reported_property, value_reported) VALUES
  ('O=C(C1CCC1)N1CCC2(COCc3cnc(N4CCOCC4)nc32)C1 (configuration not stated)', 'Aspartate--tRNA(Asp/Asn) ligase (Mycobacterium tuberculosis (strain ATCC 25618 / H37Rv))', 'Percent Effect', 2.45),
  ('O=C1C[C@H]2[C@H](CCN2Cc2ccccn2)N1CC1CC1', 'Aspartate--tRNA(Asp/Asn) ligase (Mycobacterium tuberculosis (strain ATCC 25618 / H37Rv))', 'Percent Effect', 1.05),
  ('NC(=O)NCCC(=O)NCc1cccnc1N1CCc2ccccc2C1', 'Aspartate--tRNA(Asp/Asn) ligase (Mycobacterium tuberculosis (strain ATCC 25618 / H37Rv))', 'Percent Effect', -1.71),
  ('O=C(NCc1ccoc1)NC1CCCN(c2ncccn2)C1 (configuration not stated)', 'Aspartate--tRNA(Asp/Asn) ligase (Mycobacterium tuberculosis (strain ATCC 25618 / H37Rv))', 'Percent Effect', -2.64),
  ('CCn1cc(NC(=O)CCc2ccc3c(c2)OCCCO3)cn1', 'Aspartate--tRNA(Asp/Asn) ligase (Mycobacterium tuberculosis (strain ATCC 25618 / H37Rv))', 'Percent Effect', -3.45),
  ('CCOc1ncccc1C(=O)N1CCCC1c1c(C)nn(C)c1OC (configuration not stated)', 'Aspartate--tRNA(Asp/Asn) ligase (Mycobacterium tuberculosis (strain ATCC 25618 / H37Rv))', 'Percent Effect', -0.602),
  ('Cc1nc(CN2CCCC(NCc3c(C)nc4sccn34)C2)no1 (configuration not stated)', 'Aspartate--tRNA(Asp/Asn) ligase (Mycobacterium tuberculosis (strain ATCC 25618 / H37Rv))', 'Percent Effect', 2.46),
  ('Cc1ccn(-c2ccc(C(=O)N3CCCC(n4ccnc4)C3)cc2)n1 (configuration not stated)', 'Aspartate--tRNA(Asp/Asn) ligase (Mycobacterium tuberculosis (strain ATCC 25618 / H37Rv))', 'Percent Effect', 3.8),
  ('COc1ccc(-n2cnnc2SCC(C)(C)O)cn1', 'Aspartate--tRNA(Asp/Asn) ligase (Mycobacterium tuberculosis (strain ATCC 25618 / H37Rv))', 'Percent Effect', -0.425),
  ('CC(=O)N1CCC2(CCCN(Cc3ccc(Cl)c(C(F)(F)F)c3)C2)C1 (configuration not stated)', 'Aspartate--tRNA(Asp/Asn) ligase (Mycobacterium tuberculosis (strain ATCC 25618 / H37Rv))', 'Percent Effect', 6.54),
  ('CC(=O)Nc1nc(C(=O)N2CCCC2Cn2cc(C)cn2)cs1 (configuration not stated)', 'Aspartate--tRNA(Asp/Asn) ligase (Mycobacterium tuberculosis (strain ATCC 25618 / H37Rv))', 'Percent Effect', -1.84),
  ('Cc1noc(C)c1CN(C)CC1CCCN1c1cccnn1 (configuration not stated)', 'Aspartate--tRNA(Asp/Asn) ligase (Mycobacterium tuberculosis (strain ATCC 25618 / H37Rv))', 'Percent Effect', -1.56);
